Reported half-life by item:
- procedure_text: Stability in rat plasma assessed as half life
- Format: ADME, cell-free

The compound listed as Cc1nc2cccc(N)c2c(=O)n1C1CCC(=O)NC1=O (configuration not stated) [AVADOMIDE] has a reported half-life of > 2 h

Others:
Documented half-life of Cc1nc2cccc(NCc3ccc(CN4CCCCCC4)cc3F)c2c(=O)n1C1CCC(=O)NC1=O (configuration not stated) : > 2 h

====

Below: a set of entries, each annotated with reported AUC(0-inf).
- procedure_text: AUC (0 to infinity) in ICR mouse at 10 mg/kg, po measured for 24 hrs by LC-MS/MS analysis
- Type: ADME, organism-based
- Set-up: time 24 hrs, dose 10 mg/kg, route po
- setup_conditions: in vivo
Unit ng·h/mL implied. Number only.

Field AUC(0-inf) (entry Cc1nc2cccc(NCc3ccc(CN4CCCCCC4)cc3F)c2c(=O)n1C1CCC(=O)NC1=O (configuration not stated) ) reads 4280

Could you now look at the following molecule, please?
Given item Cc1nc2cccc(N)c2c(=O)n1C1CCC(=O)NC1=O (configuration not stated) [AVADOMIDE] , the value recorded as its AUC(0-inf) is 33500
